- experimental_setup: in acetonitrile, 313.15 K
quantity_name: solubility (mole fraction)

INSERT INTO assay_data (molecular_string, quantity_name, reported) VALUES
  ('NC(N)=NCCC[C@H](NC(=O)OCc1ccccc1)C(=O)O', 'solubility (mole fraction)', '4.03e-05');

###

- experimental_setup: in dichloromethane, 283.15 K
quantity_name: solubility (mole fraction)

INSERT INTO assay_data (molecular_string, reported) VALUES
  ('NC(N)=NCCC[C@H](NC(=O)OCc1ccccc1)C(=O)O', '8.03e-05');

###

- experimental_setup: in water, 323.15 K
quantity_name: solubility (mole fraction)

INSERT INTO results (molecular_string, reported) VALUES
  ('NC(N)=NCCC[C@H](NC(=O)OCc1ccccc1)C(=O)O', 0.00104);
